target: human serum albumin (HSA) (Homo sapiens); test: HSA binding by biomimetic chromatography on immobilized HSA column (Chiralpak-HSA)
Sequence (P02768 25-609): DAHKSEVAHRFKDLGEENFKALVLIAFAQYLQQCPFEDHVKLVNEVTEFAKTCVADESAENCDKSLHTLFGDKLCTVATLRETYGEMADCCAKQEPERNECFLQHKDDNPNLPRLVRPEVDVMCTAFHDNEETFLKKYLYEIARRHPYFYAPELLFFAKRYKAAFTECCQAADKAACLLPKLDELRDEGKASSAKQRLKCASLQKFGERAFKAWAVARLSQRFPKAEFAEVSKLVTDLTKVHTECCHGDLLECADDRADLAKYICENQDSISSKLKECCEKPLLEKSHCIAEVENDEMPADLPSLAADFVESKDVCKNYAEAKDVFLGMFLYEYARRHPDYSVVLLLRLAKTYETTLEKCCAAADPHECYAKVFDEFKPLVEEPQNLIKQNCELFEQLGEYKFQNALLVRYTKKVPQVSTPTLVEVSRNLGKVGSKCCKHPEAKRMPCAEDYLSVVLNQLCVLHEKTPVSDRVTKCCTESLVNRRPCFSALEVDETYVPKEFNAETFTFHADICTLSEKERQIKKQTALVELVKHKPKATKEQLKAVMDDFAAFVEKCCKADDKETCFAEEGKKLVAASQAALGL
Decision: HSA% (HPLC), experimental data >= 60% yields 1 (yes), all other cases yield 0 (no).

Examples with answers:
>>> print(df.to_string())
                                   compound  answerlabel
0  CCOC(=O)c1cc(-c2ccc(F)cc2F)ccc1O [Diflunisal ethyl ester]      1 (yes)
1  CNC(=C[N+](=O)[O-])NCCSCc1ccc(CN(C)C)o1 [Ranitidine]       0 (no)
2  CN(C)CCCN1c2ccccc2Sc2ccc(Cl)cc21 [Chlorpromazine]      1 (yes)
3       Clc1cccc(Cl)c1N=C1NCCN1 [Clonidine]       0 (no)
4  CC(C)NCC(O)COc1cccc2ccccc12 (stereo not drawn) [Propranolol]      1 (yes)

Now turn to the next compound.
stdin: // inclusive: HSA% (HPLC), experimental data at least 60%? input: O=C(c1ccccc1)c1ccc2n1CCC2C(=O)O (stereo not drawn) [Ketorolac]
stdout: 1 (yes)
